Assignment: determine reported growth for the given compounds.
# Tested on: NCI-H23 lung
# Measurement description: NCI-60 one-dose screen, 48 h (100 = growth as untreated, 0 = no growth, -100 = all killed)
# Condition info: 10 µM unless noted
This is part of a sample that, as a whole, favours compounds with a hit. Of some 83,000 tested, about 20% had one in any assay. Activity calls are given as the source filed them. Rule for the calls: active = growth percent below 10; inactive = the rest.

QUERY: Any idea what its growth is? The compound is CCN(CC)CCCC(C)Nc1c(C)cnc2cc(Cl)c(C)cc12 (stereo unspecified)
RESULT: 91.9% (inactive)

QUERY: Any idea what its growth is? The compound is COc1cc(-c2cc3cnccc3c3nc(N)c4ccncc4c23)cc(OC)c1OC
RESULT: 64.3% (inactive)

QUERY: Any idea what its growth is? The compound is COc1ccc(-c2cn3ccnc3c(-c3ccc4ncn(C5CCCCC5)c4c3)n2)cc1
RESULT: 37.9% (inactive)

QUERY: Any idea what its growth is? The compound is CC1=NN(c2cccc(Cl)c2)C(=O)/C1=C\c1cn(-c2nc(N3CCOCC3)nc(N3CCOCC3)n2)c2ccccc12
RESULT: 100% (inactive)

QUERY: Any idea what its growth is? The compound is CCCCCCCCCCCCCCCC[n+]1cccc(C#N)c1
RESULT: 76.8% (inactive)

QUERY: Any idea what its growth is? The compound is COc1cc(-c2nn(-c3ccc(NC(=O)c4ccc(Cl)c(Cl)c4)cc3)cc2-c2ccncc2)ccc1Cl
RESULT: 77.8% (inactive)

QUERY: Any idea what its growth is? The compound is Clc1ccc(I)c2ccccc12
RESULT: 106% (inactive)

QUERY: Any idea what its growth is? The compound is CCOC(=O)c1cc(C(=O)c2ccc(Br)cc2)n2cc(C)cc(C)c12
RESULT: 95.2% (inactive)

QUERY: Any idea what its growth is? The compound is CN1C(=O)C(=Cc2coc3ccc(Br)cc3c2=O)C(=O)N(C)C1=O
RESULT: 94.5% (inactive)

QUERY: Any idea what its growth is? The compound is O=C(/C=C/c1ccc(Cl)cc1)c1ccc(Cl)cc1
RESULT: 94.8% (inactive)

QUERY: Any idea what its growth is? The compound is COC(=O)C(C)[C@H]1CC[C@@H]2[C@]1(C)CC=C1[C@]23C=C[C@]2(C[C@@H](OC(C)=O)CC[C@]12C)C(C(=O)OC)C3C(=O)OC (stereo partly specified)
RESULT: 92.3% (inactive)

QUERY: Any idea what its growth is? The compound is COc1cc2cc3cc4cc(OC)c(OC)cc4c(C)[n+]3cc2cc1OC (tested in a mixture with another compound)
RESULT: 89% (inactive)

QUERY: Any idea what its growth is? The compound is CC1C(=O)CCCC1=O
RESULT: 113% (inactive)

QUERY: Any idea what its growth is? The compound is COc1ccc(Cn2cc3c(c2-c2ccccc2)CCc2cnoc2-3)cc1OC
RESULT: 26.3% (inactive)

QUERY: Any idea what its growth is? The compound is O=C(O)CS(=O)c1ccc(Cl)cc1 (stereo unspecified)
RESULT: 106% (inactive)

QUERY: Any idea what its growth is? The compound is CCOC(=O)c1c2c(cn1Cc1ccccc1)-c1oncc1CC2
RESULT: 106% (inactive)

QUERY: Any idea what its growth is? The compound is Cc1cc(CSc2ccc(Cl)cc2)ccc1N
RESULT: 99.2% (inactive)

QUERY: Any idea what its growth is? The compound is Oc1ccc([S+](c2ccc(O)cc2)c2ccc(O)cc2)cc1
RESULT: 106% (inactive)

QUERY: Any idea what its growth is? The compound is COc1ccccc1CNCCCN1C(=O)c2ccc3c4c(ccc(c24)C1=O)C(=O)N(CCCNCc1ccccc1OC)C3=O
RESULT: -72.8% (active)

QUERY: Any idea what its growth is? The compound is O=C1C(Br)=CC2C1C1C3CCC3C2(Br)C12OCCO2 (stereo unspecified)
RESULT: 65.8% (inactive)

QUERY: Any idea what its growth is? The compound is NC(=O)c1c(Nc2ccccc2)nn2cc(-c3nc4ccccc4s3)c(N)nc12
RESULT: 95.2% (inactive)
